Test system: MAP3K15
Details: concentration: 1 μM, replicates: in singlicate; n = 1;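 also: KINOMEscan kinase panel screen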
Readout name: %Inh (%)
// note: answer is a bare numeric in %

Nc1ncc(-c2cccnc2)c2scc(-c3ccc4c(c3)CCN4C(=O)Cc3ccccc3)c12 ... 100
COc1ccc(-c2coc3ccc(-c4nnc(SCc5ccc(OC)c(C(F)(F)F)c5)o4)cc23)cc1 ... 0
Cl.Cl.NCC(NC(=O)c1cc(-c2ccccc2)c(-c2ccnc3[nH]ccc23)s1)c1ccccc1 (centres unmarked) ... 0
CNC(=O)c1ccccc1Nc1nc(Nc2ccc(N3CCOCC3)cc2)ncc1Cl.Cl ... 36

Req: Output %Inh of Cc1ccc(C(=O)N2CC[C@@H](O)C2)cc1-n1c(C)cc(OCc2ccc(F)cc2F)c(Br)c1=O
Resp: 0

Req: Output %Inh of CCc1ccc(-c2ccc3c(c2)-c2c(cnn2C)S(=O)(=O)N3C)cc1
Resp: 0

Req: Output %Inh of CCn1c(-c2nonc2N)nc2c(C#CC(C)(C)O)nc(OC[C@H](N)c3ccccc3)cc21
Resp: 0

Req: Output %Inh of COc1cc(Nc2nccc(-c3c(-c4cccc(NC(=O)c5c(F)cccc5F)c4)nn4ccccc34)n2)cc(OC)c1OC
Resp: 0

---

System: TNNI3K
Conditions: concentration: 1 μM, replicates: in singlicate; n = 1
We label by threshold. Values of %Inh strictly beneath 20% are Yes. Values of 20% and up are No.

CCn1c(-c2nonc2N)nc2c(C#CC(C)(C)O)nc(OC[C@H](N)c3ccccc3)cc21 ... Yes
C[C@@H](Oc1cc(-n2cnc3cc(-c4ccnc(NCCS(C)(=O)=O)c4)ccc32)sc1C(N)=O)c1ccccc1Cl ... No
Cl.c1ccc(-c2ccc3c(Nc4ccc5[nH]ncc5c4)ccnc3c2)nc1 ... Yes
O=C(O)C(F)(F)F.O=C(O)C(F)(F)F.O=c1[nH]ccc2nc(N[C@@H]3CCCNC3)nc(Nc3ccc(S(=O)(=O)N4CCOCC4)cc3)c12 ... Yes
O=C(Nc1cccc(Oc2ccc3nc(NC(=O)C4CC4)cn3n2)c1)c1ccccc1C(F)(F)F ... Yes

Req: Strictly below 20%: is that where %Inh of CC(=O)Nc1nc2cnc(Nc3cc(NC(=O)c4cccc(C5(C#N)CC5)c4Cl)ccc3C)nc2s1 sits?
Resp: Yes

Req: Strictly below 20%: is that where %Inh of CC(=O)N1CCN(c2ccc(Nc3nccc(-c4sc(C(C)C)nc4-c4cccc(NS(=O)(=O)c5cccc(Cl)c5)c4)n3)cn2)CC1 sits?
Resp: No

---

Tested on: EPHA1
Settings: concentration: 1 μM, replicates: in singlicate; n = 1
We label by threshold. Values of %Inh strictly beneath 20% are true. Values of 20% and up are false.

Past entries and their recorded results:
C[C@@H]1CC[C@@H](C(=O)Nc2ccccc2)CN1c1cc(-c2ccc3c(N)n[nH]c3c2)nc(N)n1 ... true
COc1cccc(C2=C(Nc3ccc(Cl)c(C(=O)O)c3)C(=O)NC2=O)c1 ... true
CN1CCN(Cc2cccc(-c3ccc4c(Nc5ccc(Oc6ccccc6)cc5)ccnc4c3)c2)CC1 ... true
Oc1cc(Nc2ccnc3cc(I)ccc23)ccc1F ... false
O=C(Nc1cccc(-c2nn3ncccc3c2-c2ccnc(Nc3ccccc3)n2)c1)c1c(F)cccc1F ... false
Nc1ncnc2c1nc(-c1ccccc1)n2-c1ccccc1 ... false

Req: Strictly below 20%: is that where %Inh of O=C(NC1CCN(c2ccnc(Nc3ccc(F)cc3)n2)C1)c1cc2ccccc2s1 (stereo not shown) sits?
Resp: true

The reported numbers originate from paper PMC5540273.
